Please provide measured Relative cell survival rate (%) for the entries that follow.
tested on: T lymphocyte cell line Jurkat E6-1; assay: Cytotoxicity experiment (CCK-8, relative cell survival); format: cell-based; settings: 30 μM; 24 hours; untreated cells = 100%
Give bare numbers, in %.

Examples from the recorded data:
CCCCCCCCCCCCNC(=O)CNC(=O)c1ccccc1Cl: 89
CCCCCCCCNCCCNC(=O)c1nccnc1Cl: 97
CCCCCCCCCCCCNC(=O)c1ccc2ccccc2n1: 39
CCCCCCCCCCCCNC(=O)c1ccccc1C(=O)c1ccc(Cl)cc1: 92

Required: Relative cell survival rate (%), one value per compound below.
1. CCCCCCCCCCCCNC(=O)c1cccnc1Oc1ccc(Cl)cc1
2. CCCCCCCCCCCCNC(=O)c1ncccc1Br
3. CCCCCCCCCCCCNS(=O)(=O)c1ccccc1F
4. CCCCCCCCCCCCNC(=O)c1cccnc1C(F)(F)F

(A)
1. 85
2. 98
3. 76
4. 123

---

Please provide measured Relative cell survival rate (%) for the entries that follow.
test system: T lymphocyte cell line Jurkat E6-1; assay: Cytotoxicity experiment (CCK-8, relative cell survival); assay type: cell-based; details: 20 μM; 24 hours; untreated cells = 100%
Answers are plain numbers, in %.

Examples from the recorded data:
CC(C)=CCC/C(C)=C/CNC(=O)c1cccnc1N: 95
CCCCCCCCCCCCNC(=O)c1ccccc1C(=O)O: 90

Required: Relative cell survival rate (%), one value per compound below.
1. CCCCCCCCCCCCNS(=O)(=O)c1ccccc1F
2. CCCCCCCCCCCCNC(=O)c1c(F)cccc1[N+](=O)[O-]
3. CCCCCCCCCCCCNC(=O)c1ccccc1C(=O)c1ccc(Cl)cc1
4. CCCCCCCCCCCCNC(=O)c1cccnc1N
5. CCCCCCCCCCCCNC(=O)c1ccccc1NC

(A)
[94, 87, 101, 94, 84]

Required: Relative cell survival rate (%), one value per compound below.
1. CCCCCCCCCCCCNC(=O)c1cccnc1Cl
2. CCCCCCCCCCCCNC(=O)c1ccc2ccccc2n1
3. CCCCCCCCCCCCNC(=O)CNC(=O)c1ccccc1Cl
4. CCCCCC(=O)Nc1cccc(CNC(=O)c2ccccc2Br)c1

(A)
[71, 42, 91, 98]

Required: Relative cell survival rate (%), one value per compound below.
1. CCCCCCCCCCCCNS(=O)(=O)c1c(Cl)cccc1Cl
2. CCCCCCCCCCCCNC(=O)c1ccncc1N
3. CCCCCCCCCCCCNC(=O)c1cnccc1N
4. CCCCCCCCCCCC(=O)NCc1ccccc1Br
5. C=Cc1ccccc1C(=O)NCCCCCCCCCCCC
6. CCCCCCCCCCCCNC(=O)c1ccncc1Cl
7. CCCCCCCCCCCCNC(=O)c1nccc2ccccc12
8. CCCCCCCCCCCC(=O)Nc1ccccc1Br

(A)
99
91
94
104
108
92
108
109

---

tested on: spleen T cells; assay: T cell proliferation inhibition (CFSE, FACS), CD3/CD28-activated spleen T cells; format: cell-based, C57BL/6 mice; conditions: Mus musculus, T-cell, 72 h; Table 2; 50 μM; 3 days; relative to CD3/CD28+DMSO; read-out: Proliferation inhibition rate (%)
Classification field: enter 1.0 for inhibition at 50 µM values not below 90%, 0.0 for values below it.

Completed entries (count: 3):
CCCCCCCCCCCCNC(=O)c1ccc(F)c(F)c1F: 1.0
CCCCCCCCCCCCNC(=O)c1cccnn1: 0.0
CCCCCCCCNCCCNC(=O)c1nccnc1Cl: 0.0

Shift focus to the following entry.
(Q) Hello, I need to know if CCCCCCCCCCCCNC(=O)c1ncccn1 has measured inhibition at 50 µM not below 90%. Thanks!
(A) 1.0
